- Test system: Human liver HepG2 cells
- Type: cell-based
- experimental.context: 24 h, MTS
No end group written: not given here.
measurement.label: LC50, HepG2 (µM)

1) KRWWQWWK-NH2 [KR-8+] | 12.5
2) RWKRFLRNWV-NH2 [RIK-10+] | 100
